Measured Population Membrane Permeable-Phenotype (%) values are reported for all entries that follow.
Test system: Fibroblast
Assay: Multiplex assay against human fibroblast
Format: toxicity, cell-based
Conditions: 24 h, 1 µM, compound concentration 1 uM, replicate 2
Value Kind: Population Membrane Permeable-Phenotype (%)

[
  {
    "Compound": "CCNC1(C(N)=O)CCN(c2ncnc3c2nc(-c2ccccc2Cl)n3-c2ccc(Cl)cc2)CC1",
    "Reported Value": 9
  },
  {
    "Compound": "CN1CCN(c2nc3cc(C(F)(F)F)ccc3n3cccc23)CC1.O=C(O)/C=C\\C(=O)O.O=C(O)/C=C\\C(=O)O",
    "Reported Value": 7
  },
  {
    "Compound": "C[C@@H]1C[C@H]2[C@@H]3CCC4=CC(=O)C=C[C@]4(C)[C@@]3(F)[C@@H](O)C[C@]2(C)[C@@]1(O)C(=O)CO",
    "Reported Value": 4
  },
  {
    "Compound": "CCCn1c(=O)c2[nH]c(C3CCCC3)nc2n(CCC)c1=O",
    "Reported Value": 4
  },
  {
    "Compound": "Cc1ccc(C(C)(O)c2nc3ccccc3s2)c(C)c1 (stereo not drawn)",
    "Reported Value": 11
  },
  {
    "Compound": "O=C(NCCO)c1cccc(-c2cc(Nc3ccc(OC(F)(F)F)cc3)ncn2)c1",
    "Reported Value": 5
  },
  {
    "Compound": "N[C@@]1(C(=O)O)CO[C@H]2[C@H](C(=O)O)[C@H]21",
    "Reported Value": 4
  },
  {
    "Compound": "COc1c(C)cc(NC(=O)c2nn(Cc3ccc(F)cc3)c3c2CN(C(=O)c2ccc[nH]2)C[C@]3(C)C(N)=O)cc1C",
    "Reported Value": 8
  }
]

----------
Test system: Fibroblast
Assay: Multiplex assay against human fibroblast
Format: toxicity, cell-based
Conditions: 48 h, 10 µM, compound concentration 10 uM, replicate 2
Value Kind: Population Tubulin-Different-Phenotype (%)

[
  {
    "Molecule": "Cc1ccccc1C(=O)Nc1ccc(C(=O)N2CCCC(N(C)C)c3ccccc32)cc1.Cl (stereo not given)",
    "U": "%",
    "Reported Value": 70
  },
  {
    "Molecule": "COc1cc(C(=O)N(CCCc2ccccc2)Cc2ccc(CC(=O)O)cc2)cc(OC)c1C",
    "U": "%",
    "Reported Value": 46
  },
  {
    "Molecule": "CC(C)(C)c1ccc(S(=O)(=O)Nc2ccc(Cl)cc2C(=O)c2cc[n+]([O-])cc2)cc1",
    "U": "%",
    "Reported Value": 72
  },
  {
    "Molecule": "CCOc1c2c(c(OCC)c3ncccc13)CN(c1ccc(CS(=O)(=O)NC(=O)Cc3ccccc3OC)cc1C)C2=O",
    "U": "%",
    "Reported Value": 51
  },
  {
    "Molecule": "Cc1ccc(/C(=C\\CN2CCCC2)c2ccccn2)cc1",
    "U": "%",
    "Reported Value": 54
  }
]

----------
Test system: Fibroblast
Assay: Multiplex assay against human fibroblast
Type: toxicity, cell-based
Details: 24 h, 1 µM, compound concentration 1 uM, replicate 2
Value Kind: Total Cell Count

[
  {
    "Molecule": "O=S(=O)(c1ccccc1)c1cnc2c(N3CCNCC3)cccc2c1 [INTEPIRDINE]",
    "Tested On": "Fibroblast",
    "Value Kind": "Total Cell Count",
    "Reported Value": 151
  },
  {
    "Molecule": "COc1c(C)cc(NC(=O)c2nn(Cc3ccc(F)cc3)c3c2CN(C(=O)c2ccc[nH]2)C[C@]3(C)C(N)=O)cc1C",
    "Tested On": "Fibroblast",
    "Value Kind": "Total Cell Count",
    "Reported Value": 95
  },
  {
    "Molecule": "O=C(NCC(=O)N1CC[C@H](N[C@H]2CC[C@@](O)(c3ccc(-c4ncccn4)cn3)CC2)C1)c1cccc(C(F)(F)F)c1",
    "Tested On": "Fibroblast",
    "Value Kind": "Total Cell Count",
    "Reported Value": 148
  },
  {
    "Molecule": "CSCC[C@H](NC=O)C(=O)N[C@@H](CC(C)C)C(=O)N[C@@H](Cc1ccccc1)C(=O)O",
    "Tested On": "Fibroblast",
    "Value Kind": "Total Cell Count",
    "Reported Value": 179
  },
  {
    "Molecule": "COc1cc(NC(=O)CCN2CCC(OC(=O)Nc3ccccc3-c3ccccc3)CC2)c(Cl)cc1CNC[C@H](O)c1ccc(O)c2[nH]c(=O)ccc12",
    "Tested On": "Fibroblast",
    "Value Kind": "Total Cell Count",
    "Reported Value": 131
  },
  {
    "Molecule": "c1cc(OCCCN2CCCCC2)ccc1CN1CCCCC1",
    "Tested On": "Fibroblast",
    "Value Kind": "Total Cell Count",
    "Reported Value": 160
  },
  {
    "Molecule": "Cc1ccc(C(C)(O)c2nc3ccccc3s2)c(C)c1 (stereo unspecified)",
    "Tested On": "Fibroblast",
    "Value Kind": "Total Cell Count",
    "Reported Value": 173
  },
  {
    "Molecule": "CC[C@H]1OC(=O)[C@H](C)[C@@H](O[C@H]2C[C@@](C)(OC)[C@@H](O)[C@H](C)O2)[C@H](C)[C@@H](O[C@@H]2O[C@H](C)C[C@H](N(C)C)[C@H]2O)[C@@]2(C)CC(C)=C(O2)[C@H](C)[C@@H](O)[C@]1(C)O",
    "Tested On": "Fibroblast",
    "Value Kind": "Total Cell Count",
    "Reported Value": 176
  },
  {
    "Molecule": "CC(=O)NCCc1c(Cc2ccccc2)[nH]c2ccccc12",
    "Tested On": "Fibroblast",
    "Value Kind": "Total Cell Count",
    "Reported Value": 137
  },
  {
    "Molecule": "Cc1ccccc1C(=O)Nc1ccc(C(=O)N2CCCC(N(C)C)c3ccccc32)cc1.Cl (stereo unspecified)",
    "Tested On": "Fibroblast",
    "Value Kind": "Total Cell Count",
    "Reported Value": 157
  },
  {
    "Molecule": "CC(C)(C)c1ccc(S(=O)(=O)Nc2ccc(Cl)cc2C(=O)c2cc[n+]([O-])cc2)cc1",
    "Tested On": "Fibroblast",
    "Value Kind": "Total Cell Count",
    "Reported Value": 142
  }
]

// data source = ChEMBL document CHEMBL5058577
